B1: library; a variant is named by its letters at N, in order (parent)
chain: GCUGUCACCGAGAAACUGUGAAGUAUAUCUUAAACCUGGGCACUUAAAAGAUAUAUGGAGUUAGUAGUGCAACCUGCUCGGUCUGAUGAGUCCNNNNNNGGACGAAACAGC

# Variants of: B1
# ASSAY EXPLANATION: FACS-Seq fitted mean relative fluorescence mCherry/BFP without ligand (log10 relative fluorescence); HEK293T; ligand: cyclic di-GMP (c-di-GMP-II aptamer); higher = higher reporter protein expression
# ASSAY CONTEXT: ligand present: no
Classification field: enter Fulfilled for FACS-Seq fitted mean (log10) values not below -0.4, Not fulfilled for values below it.

These recorded examples may help you get a feel for the data.
item_sequence="GCUGUCACCGAGAAACUGUGAAGUAUAUCUUAAACCUGGGCACUUAAAAGAUAUAUGGAGUUAGUAGUGCAACCUGCUCGGUCUGAUGAGUCCCAGUAAGGACGAAACAGC [CAGUAA]" assigned_class="Not fulfilled"
item_sequence="GCUGUCACCGAGAAACUGUGAAGUAUAUCUUAAACCUGGGCACUUAAAAGAUAUAUGGAGUUAGUAGUGCAACCUGCUCGGUCUGAUGAGUCCCGGUACGGACGAAACAGC [CGGUAC]" assigned_class="Not fulfilled"
item_sequence="GCUGUCACCGAGAAACUGUGAAGUAUAUCUUAAACCUGGGCACUUAAAAGAUAUAUGGAGUUAGUAGUGCAACCUGCUCGGUCUGAUGAGUCCGAUGCAGGACGAAACAGC [GAUGCA]" assigned_class=Fulfilled

Q: Does FACS-Seq fitted mean (log10) meet or surpass -0.4 for GCUGUCACCGAGAAACUGUGAAGUAUAUCUUAAACCUGGGCACUUAAAAGAUAUAUGGAGUUAGUAGUGCAACCUGCUCGGUCUGAUGAGUCCAGAAUCGGACGAAACAGC [AGAAUC] ?
Ans: Fulfilled

Q: Say whether GCUGUCACCGAGAAACUGUGAAGUAUAUCUUAAACCUGGGCACUUAAAAGAUAUAUGGAGUUAGUAGUGCAACCUGCUCGGUCUGAUGAGUCCGAAUGGGGACGAAACAGC [GAAUGG] shows FACS-Seq fitted mean (log10) of -0.4 or more.
Ans: Fulfilled

These data points were gathered from the supplement of paper PMC6757056.
